Where do these numbers come from? They come from PubChem BioAssay AID489024.

Target: CHO-CHOP luciferase reporter, UPR activation, luminescence
Assay: CHOP reporter induction, apoptotic UPR branch – CHO-CHOP cells, luciferase luminescence, confirmation (AID 489024);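 note: compounds added alone to reporter cells with no tunicamycin stress co-treatment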
Activity calls are given as the source filed them.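 Rule for the calls: active = compounds whose mean EC50, the dose giving half the maximal reporter activation, is at or below a set limit; inactive = the rest.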
Classes used: active, inactive

>>> print(df.to_string())
                                   molecule  classification
0  CCc1nnc(NC(=O)c2nc(S(=O)(=O)Cc3ccc(C)cc3)ncc2Cl)s1        inactive
1        O=C(N/N=C/c1ccccn1)c1sc2ccccc2c1Cl          active
2  O=C(NCc1ccccc1Cl)c1cccc2c1C(=O)c1ccc(-c3ccc(OC(F)(F)F)cc3)cc1S2(=O)=O        inactive
3  Cc1ccccc1S(=O)(=O)NC1OC(=O)C(Cl)=C1Cl (stereo not given)        inactive
4  O=C(O)CC1CCC(=C(Cl)Cl)C1 (stereo not given)        inactive
5  N#CC1(C#N)COC23CCCCC2C1(C#N)C(=N)O3 (stereo not given)          active
6  CS(=O)(=O)Oc1ccc2c(c1)O/C(=C\C=C\c1ccccc1)C2=O        inactive
7  COc1ccc2cc(C)c3nnc(SCC(=O)Nc4nc(-c5ccc(F)cc5)cs4)n3c2c1          active
8  CCOc1cc(/C=C2\CN(CC)C/C(=C\c3ccc(O)c(OCC)c3)C2=O)ccc1O          active
9  CC(=O)c1ccc(NC(=O)COC(=O)c2ccccc2N=Nc2ccc(N(C)C)cc2)cc1        inactive
